# pIC50 per entry
assayTarget: Elastase (Pseudomonas aeruginosa (strain ATCC 15692 / PAO1 / 1C / PRS 101 / LMG12228), UniProt P14756)
Sequence (P14756 whole entry): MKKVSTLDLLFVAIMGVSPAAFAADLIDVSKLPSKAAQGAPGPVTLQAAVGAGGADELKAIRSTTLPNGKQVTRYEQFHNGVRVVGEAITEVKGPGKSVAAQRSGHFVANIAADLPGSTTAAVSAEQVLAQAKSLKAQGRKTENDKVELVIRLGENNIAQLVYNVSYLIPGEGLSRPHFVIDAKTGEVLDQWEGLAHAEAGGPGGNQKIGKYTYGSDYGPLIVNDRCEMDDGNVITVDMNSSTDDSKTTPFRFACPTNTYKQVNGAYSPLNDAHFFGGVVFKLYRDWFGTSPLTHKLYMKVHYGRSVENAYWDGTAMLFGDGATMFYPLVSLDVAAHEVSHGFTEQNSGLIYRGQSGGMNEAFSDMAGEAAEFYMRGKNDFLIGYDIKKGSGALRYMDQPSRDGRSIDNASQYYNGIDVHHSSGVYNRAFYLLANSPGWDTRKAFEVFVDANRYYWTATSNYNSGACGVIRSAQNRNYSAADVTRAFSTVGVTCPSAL
assayRemarks: Inhibition of Pseudomonas aeruginosa pseudolysin using Abz-Ala-Gly-Leu-Ala-p-nitrobenzylamide as substrate after 15 mins
Keep in mind that pIC50 stands for -log10 of concentration in molar terms.

Guide cases for pIC50, answers given:
NS(=O)(=O)c1ccc(CCNC(=O)CN(CC(=O)NO)S(=O)(=O)c2ccc(-c3ccccc3)cc2)cc1 ... 4.51
O=C(O)CN(CC(=O)NO)Cc1ccc([N+](=O)[O-])cc1 ... 4.70
CC(C)[C@H](C(=O)NO)N(CC(=O)O)S(=O)(=O)c1ccc(Oc2ccccc2)cc1 ... 4.09
COc1ccc(S(=O)(=O)N(CC(=O)NO)CC(=O)NCCc2ccc(S(N)(=O)=O)cc2)cc1 ... 4.82
O=C(CN(CC(=O)NCCCN1CCN(c2ccccc2)CC1)Cc1ccccc1)NO ... 5.17

# pIC50 lookup, item NS(=O)(=O)c1ccc(CCNC(=O)CN(CC(=O)NO)Cc2ccccc2)cc1
6.40

# pIC50 lookup, item NS(=O)(=O)c1ccc(CCNC(=O)CN(CC(=O)NO)S(=O)(=O)c2ccc(Oc3ccccc3)cc2)cc1
4.80

# pIC50 lookup, item COc1ccc(S(=O)(=O)N(CC(=O)O)CC(=O)NO)cc1
3.77

The reported numbers originate from ChEMBL document CHEMBL3351501.
